Tested on: 439559-082-T-J2-PDC spheroids viability;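 also: spheroids exposed to the agents for 7 days before readout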
experimentDescription: Anticancer human tumor 439559-082-T-J2-PDC patient-derived colon adenocarcinoma cell line growth inhibition [GQUAD]; active = viability on the fitted dose curve at most 10% of control; inactive = the rest
measurementParameters: second compound 0.0316 µM; first compound 3.16 µM
Source text: DNA G-quadruplex Stabilizer Agents in Combinations in Complex Spheroids A high-throughput screen of multi-cell type tumor spheroids was designed to identify active combinations of DNA G-quadruplex stabilizer agents and targeted small molecules. […] Compounds. […] If the clinical Cmax for an agent had not been determined, the highest concentration tested was 10 microM. […]
Outcomes: active, inactive

{"compound": "CC1COCCN1c1cc(-c2ccnn2C)c2ccnc(-c3ccn[nH]3)c2n1 (centres undefined) + CN(C)c1ccc(Nc2c3ccc(NC(=O)CCN4CCCC4)cc3nc3cc(NC(=O)CCN4CCCC4)ccc23)cc1", "assayTarget": "439559-082-T-J2-PDC spheroids viability", "groupLabel": "inactive"}
{"compound": "C=CCn1c(=O)c2cnc(Nc3ccc(N4CCN(C)CC4)cc3)nc2n1-c1cccc(C(C)(C)O)n1 + Cc1cnc(CNC(=O)c2c(=O)c3ccc(N4CCCN(C)CC4)nc3n3c2sc2ccccc23)cn1", "assayTarget": "439559-082-T-J2-PDC spheroids viability", "groupLabel": "inactive"}
{"compound": "CC1COCCN1c1cc(C2(O)CC3CCC(C2)O3)c2cnn(-c3ccn[nH]3)c2n1 (centres undefined) + Cc1[nH]c2ccc(F)cc2c1-c1nc2c3cccnc3c3ncccc3c2[nH]1", "assayTarget": "439559-082-T-J2-PDC spheroids viability", "groupLabel": "inactive"}
{"compound": "CC(=O)O[C@H]1C(=O)[C@@]2(C)[C@H]([C@H](OC(=O)c3ccccc3)[C@]3(O)C[C@H](OC(=O)[C@H](O)[C@@H](NC(=O)c4ccccc4)c4ccccc4)C(C)=C1C3(C)C)[C@]1(OC(C)=O)CO[C@@H]1C[C@@H]2O + CN(C)c1ccc(Nc2c3ccc(NC(=O)CCN4CCCC4)cc3nc3cc(NC(=O)CCN4CCCC4)ccc23)cc1", "assayTarget": "439559-082-T-J2-PDC spheroids viability", "groupLabel": "inactive"}
{"compound": "O=C(c1cc(Cc2n[nH]c(=O)c3ccccc23)ccc1F)N1CCN(C(=O)C2CC2)CC1 + CN(C)c1ccc(Nc2c3ccc(NC(=O)CCN4CCCC4)cc3nc3cc(NC(=O)CCN4CCCC4)ccc23)cc1", "assayTarget": "439559-082-T-J2-PDC spheroids viability", "groupLabel": "inactive"}
{"compound": "COc1cc(C2c3cc4c(cc3C(OC3OC5COC(C)OC5C(O)C3O)C3COC(=O)C23)OCO4)cc(OC)c1O (centres undefined) + Cc1cnc(CNC(=O)c2c(=O)c3ccc(N4CCCN(C)CC4)nc3n3c2sc2ccccc23)cn1", "assayTarget": "439559-082-T-J2-PDC spheroids viability", "groupLabel": "inactive"}
{"compound": "COc1cc(C2c3cc4c(cc3C(OC3OC5COC(C)OC5C(O)C3O)C3COC(=O)C23)OCO4)cc(OC)c1O (centres undefined) + Cc1[nH]c2ccc(F)cc2c1-c1nc2c3cccnc3c3ncccc3c2[nH]1", "assayTarget": "439559-082-T-J2-PDC spheroids viability", "groupLabel": "inactive"}
{"compound": "C=CCn1c(=O)c2cnc(Nc3ccc(N4CCN(C)CC4)cc3)nc2n1-c1cccc(C(C)(C)O)n1 + Cc1[nH]c2ccc(F)cc2c1-c1nc2c3cccnc3c3ncccc3c2[nH]1", "assayTarget": "439559-082-T-J2-PDC spheroids viability", "groupLabel": "inactive"}
{"compound": "COc1ncnc(C2CC2)c1-c1ncc2cnn(Cc3ccc(-c4nc(C(F)(F)F)cn4C(C)C)cc3)c2n1 + Cc1[nH]c2ccc(F)cc2c1-c1nc2c3cccnc3c3ncccc3c2[nH]1", "assayTarget": "439559-082-T-J2-PDC spheroids viability", "groupLabel": "inactive"}
{"compound": "O=C(NO)c1cnc(N2CCN(S(=O)(=O)c3ccc4ccccc4c3)CC2)nc1 + Cc1cnc(CNC(=O)c2c(=O)c3ccc(N4CCCN(C)CC4)nc3n3c2sc2ccccc23)cn1", "assayTarget": "439559-082-T-J2-PDC spheroids viability", "groupLabel": "active"}
{"compound": "C#Cc1c(F)ccc2cc(O)cc(-c3ncc4c(N5CC6CCC(C5)N6)nc(OCC56CCCN5CC(F)C6)nc4c3F)c12 (centres undefined) + CN(C)c1ccc(Nc2c3ccc(NC(=O)CCN4CCCC4)cc3nc3cc(NC(=O)CCN4CCCC4)ccc23)cc1", "assayTarget": "439559-082-T-J2-PDC spheroids viability", "groupLabel": "inactive"}
{"compound": "CC1COCCN1c1cc(C2(O)CC3CCC(C2)O3)c2cnn(-c3ccn[nH]3)c2n1 (centres undefined) + Cc1cnc(CNC(=O)c2c(=O)c3ccc(N4CCCN(C)CC4)nc3n3c2sc2ccccc23)cn1", "assayTarget": "439559-082-T-J2-PDC spheroids viability", "groupLabel": "inactive"}
{"compound": "COc1cc(C2c3cc4c(cc3C(OC3OC5COC(C)OC5C(O)C3O)C3COC(=O)C23)OCO4)cc(OC)c1O (centres undefined) + CN(C)c1ccc(Nc2c3ccc(NC(=O)CCN4CCCC4)cc3nc3cc(NC(=O)CCN4CCCC4)ccc23)cc1", "assayTarget": "439559-082-T-J2-PDC spheroids viability", "groupLabel": "inactive"}
{"compound": "C=CC(=O)N1CCN(c2nc(=O)n(-c3c(C)ccnc3C(C)C)c3nc(-c4c(O)cccc4F)c(F)cc23)C(C)C1 (centres undefined) + Cc1[nH]c2ccc(F)cc2c1-c1nc2c3cccnc3c3ncccc3c2[nH]1", "assayTarget": "439559-082-T-J2-PDC spheroids viability", "groupLabel": "inactive"}
{"compound": "CC(C)(O)C1CCC(Nc2ccc3ncc(-c4cccc(C(F)(F)F)c4)n3n2)CC1 (centres undefined) + Cc1cnc(CNC(=O)c2c(=O)c3ccc(N4CCCN(C)CC4)nc3n3c2sc2ccccc23)cn1", "assayTarget": "439559-082-T-J2-PDC spheroids viability", "groupLabel": "inactive"}
{"compound": "C#Cc1c(F)ccc2cc(O)cc(-c3ncc4c(N5CC6CCC(C5)N6)nc(OCC56CCCN5CC(F)C6)nc4c3F)c12 (centres undefined) + Cc1[nH]c2ccc(F)cc2c1-c1nc2c3cccnc3c3ncccc3c2[nH]1", "assayTarget": "439559-082-T-J2-PDC spheroids viability", "groupLabel": "inactive"}
{"compound": "Cc1cccc(N(C)C(=O)C2C(O)CCN2c2nc(C)cc(C(F)(F)F)c2C#N)c1 (centres undefined) + Cc1[nH]c2ccc(F)cc2c1-c1nc2c3cccnc3c3ncccc3c2[nH]1", "assayTarget": "439559-082-T-J2-PDC spheroids viability", "groupLabel": "inactive"}
{"compound": "COc1cccc2c1C(=O)c1c(O)c3c(c(O)c1C2=O)CC(O)(C(=O)CO)CC3OC1CC(N)C(O)C(C)O1 (centres undefined) + Cc1[nH]c2ccc(F)cc2c1-c1nc2c3cccnc3c3ncccc3c2[nH]1", "assayTarget": "439559-082-T-J2-PDC spheroids viability", "groupLabel": "inactive"}
{"compound": "CC(=O)O[C@H]1C(=O)[C@@]2(C)[C@H]([C@H](OC(=O)c3ccccc3)[C@]3(O)C[C@H](OC(=O)[C@H](O)[C@@H](NC(=O)c4ccccc4)c4ccccc4)C(C)=C1C3(C)C)[C@]1(OC(C)=O)CO[C@@H]1C[C@@H]2O + Cc1[nH]c2ccc(F)cc2c1-c1nc2c3cccnc3c3ncccc3c2[nH]1", "assayTarget": "439559-082-T-J2-PDC spheroids viability", "groupLabel": "active"}

Values were extracted from PubChem BioAssay AID2060510.
